This collection of values is drawn from PubChem BioAssay (NCI).

System: UACC-62 melanoma
assay text: NCI tumour cell line growth inhibition, 48 h
recorded metric: TGI (µM)
Quick note: give the figure in µM, leave out the unit.

## Task What measured TGI goes with `O=C(/C=C/c1ccncc1)c1cc(Cl)ccc1O` ?
## Result 37.3

## Task Fill in: TGI of `OCCc1ccsc1-c1sc(-c2cc(CCO)c(-c3sccc3CCO)s2)cc1CCO` is ___
## Result 25.4

## Task Give its TGI value. Item: CCCCCCCCC/C=C1\CCC(CN2CCOCC2)C1=O (stereo unspecified)
## Result 10.7

----------
I'd be grateful if you could share measured TGI for these entries.
System: HT29 colon
assay text: NCI tumour cell line growth inhibition, 48 h
Lab book: enter the figure in µM, no units written.

## Task Using the record for CC1OC(OC2C(OC(=O)[C@]34CCC(C)(C)C[C@H]3C3=CC[C@@H]5[C@@]6(C)CC[C@H](OC7OC(C(=O)O)C(O)C(O)C7O)C(C)(C)[C@@H]6CC[C@@]5(C)[C@]3(C)C[C@H]4O)OCC(O)C2O)C(O)C(OC2OCC(O)(CO)C2O)C1OC1OCC(O)C(O)C1O (some centres undefined) , report its TGI.
## Result 12.1

## Task Param item = `C=CCSc1nnc2cc(CN3CCCC3)c(-c3ccc(Cl)cc3)nn12` ; retrieve measured TGI.
## Result 32.5

----------
System: OVCAR-5 ovarian
assay text: NCI tumour cell line growth inhibition, 48 h
recorded metric: TGI

## Task Can you look up TGI on OVCAR-5 ovarian for `CC(C)(C)OC(=O)N[C@H]1CC2(C=C(Cl)C(=O)C(Cl)=C2)OC1=O` ?
## Result 38.6 µM

## Task Record lookup: for OVCAR-5 ovarian, what TGI belongs to CC1=CC(O)(c2ccc(-c3ccccc3Cl)cc2)OC1=O (stereo not given) ?
## Result > 100 µM

## Task For OVCAR-5 ovarian, provide TGI of N#CC12C(=O)N=C(N)C1(C#N)C(c1ccco1)NC1=C2CCCC1 (stereo not given) please.
## Result > 100 µM

## Task Request body: readout TGI, system OVCAR-5 ovarian, query `CN1CSC(=S)N(c2c3ccccc3nc3ccc(Br)cc23)C1` . Return the value.
## Result 31.6 µM

## Task Missing value: TGI, OVCAR-5 ovarian, entry O=c1c2sccc2n(CC2COc3ccccc3O2)c(=O)n1O (stereo not given) . Fill in?
## Result > 100 µM

## Task Recall the recorded TGI for CC1OC(OC2C(OC(=O)[C@]34CCC(C)(C)C[C@H]3C3=CC[C@@H]5[C@@]6(C)CC[C@H](OC7OC(C(=O)O)C(O)C(O)C7O)C(C)(C)[C@@H]6CC[C@@]5(C)[C@]3(C)C[C@H]4O)OCC(O)C2O)C(O)C(OC2OCC(O)(CO)C2O)C1OC1OCC(O)C(O)C1O (stereo not given in full) with OVCAR-5 ovarian and state it.
## Result 22.9 µM

## Task OVCAR-5 ovarian / TGI / `NS(=O)(=O)c1cc(Cl)c(NC(=S)NC(=O)Nc2ccc(Cl)c(Cl)c2)c(Cl)c1` : value?
## Result > 100 µM

## Task Record lookup: for OVCAR-5 ovarian, what TGI belongs to `Cc1ccc(C(=C2Sc3ccccc3S2)C(=C2Sc3ccccc3S2)c2ccc(C)s2)s1` ?
## Result > 100 µM

## Task So what TGI did CCOP(=O)(OCC)C(c1ccc(F)cc1)N(C(=O)NC(F)(F)F)c1ccc(OC)cc1 (stereo not given) get with OVCAR-5 ovarian?
## Result > 100 µM

## Task // lookup TGI | system=OVCAR-5 ovarian | key= `COc1ccc(-c2nc(SCC(=O)N/N=C/c3ccc(N(C)C)cc3)[nH]c2-c2ccc(OC)cc2)cc1`
## Result > 100 µM

## Task Param readout = TGI; param system = OVCAR-5 ovarian; param query = `CCOC(=O)c1cc2nc3ccccc3c(=O)n2c2ccccc12` ; response: value
## Result > 10 µM

## Task Value wanted: TGI (OVCAR-5 ovarian) of entry C=C(Br)C(C)(Br)CCC(Br)C(C)(C)Cl (stereo not given)
## Result 39.7 µM

## Task Hello, I am looking for reported TGI with OVCAR-5 ovarian for `CN(C)c1ccc(/C=C(\NC(=O)c2ccccc2)c2nc3ncncc3[nH]2)cc1` . Could you help?
## Result > 100 µM

## Task // lookup TGI | system=OVCAR-5 ovarian | key= `CC1=NS(=O)(=O)c2ccccc2N1`
## Result > 100 µM

## Task Lab request: please report TGI under test system OVCAR-5 ovarian for `O=[N+]([O-])c1ccc(Oc2c(Cl)cc(S(=O)(=O)/N=C(\NO)Nc3ccc(Cl)cc3)cc2Cl)cc1`
## Result 25.8 µM

## Task Observed TGI on OVCAR-5 ovarian for `CCOC(=O)c1ccc(NCC#CCN2CCOCC2)cc1` , please.
## Result > 100 µM

## Task What reported TGI corresponds to CCCCCCCCC/C=C1\CCC(CN2CCOCC2)C1=O (stereo not given) on OVCAR-5 ovarian?
## Result 31.6 µM

## Task TGI of `NS(=O)(=O)c1cc2c(cc1Cl)NC(CCC(=O)O)=NS2(=O)=O` on OVCAR-5 ovarian?
## Result > 100 µM

## Task What measured TGI is associated with Cc1cccc2c1CC1(C2)Cc2c(C)cccc2C1=O (stereo not given) on OVCAR-5 ovarian?
## Result > 100 µM

## Task For the record CC1=NN(c2cccc(Cl)c2)C2(SCC(=O)N2c2nc3ccccc3s2)/C1=C\c1ccccc1O (stereo not given) , what value of TGI is listed for OVCAR-5 ovarian?
## Result > 100 µM

----------
Please respond with reported TGI for every item in the list.
System: MDA-MB-231 breast
assay text: NCI tumour cell line growth inhibition, 48 h
Please reply with the bare figure in µM and do not write the unit itself.

## Task Which TGI reading was recorded for the compound `Cc1cc(N(CCOS(C)(=O)=O)CCOS(C)(=O)=O)ccc1C=O` ?
## Result 94.6

## Task Need TGI of `N=C(N)SCc1ccc2c(c1)Sc1ccccc1O2` , thanks.
## Result 45.2

## Task # TGI lookup, item `O=C1NCCN1/N=C/c1c(Cl)n(-c2ccccc2)c2ccccc12`
## Result 44.1

## Task # input compound: CCCCCCCCC/C=C1\CCC(CN2CCOCC2)C1=O (configuration not stated) ; wanted: its TGI
## Result 11.2

## Task Name the recorded TGI for COC(=O)C1=C(C)NC(C)=C(C(=O)OCCCN2CCC(c3ccccc3)(c3ccccc3)CC2)C1c1cccc([N+](=O)[O-])c1 (configuration not stated) .
## Result 2.65

## Task Need TGI, item COC1=CC(=O)C(C2CC(=O)c3c(O)cc(O)cc3O2)=CC1=O (configuration not stated)
## Result 29.1

## Task So what's the measured TGI for this one? Cc1cccc2c1CC1(C2)Cc2c(C)cccc2C1=O (configuration not stated)
## Result 53.7

## Task Given the compound `CC1=C[C@@H]2Cc3nc4cc(Cl)ccc4c(N)c3[C@H](C1)C2` , what is its reported TGI?
## Result 28.7

## Task For the compound shown here, `CCN1CCN(c2nc(C)cc(N(CCNc3ccnc4cc(Cl)ccc34)Cc3ccc4c(c3)OCO4)n2)CC1` , give the reported TGI.
## Result 3.19

----------
System: OVCAR-8 ovarian
assay text: NCI tumour cell line growth inhibition, 48 h
Exercise: for every item that follows, state its recorded GI50.

## Task # GI50 lookup, item O=C1OC(O)[C@@H]2[C@H]1[C@H]1CC[C@@H]2O1 (stereo partly drawn)
## Result > 100 µM

## Task # GI50 lookup, item `COc1ccc(-c2nnc(COc3ccc(C(=O)/C=C/c4ccco4)cc3)o2)cc1`
## Result 3.04 µM

## Task Reported GI50, compound `Cn1cnc([N+](=O)[O-])c1S(=O)(=O)Oc1cccc2ccccc12` : ____
## Result 4.62 µM

----------
Could you please report measured GI50 for the items listed next?
Test system: OVCAR-8 ovarian
assay text: NCI tumour cell line growth inhibition, 48 h

## Task Please provide the recorded GI50 for `COc1cc(/C=C/c2cc(O)c(C(C)=O)c(O)c2)cc2c1O[C@]1(C)CC[C@@H](O)C(C)(C)[C@H]1C2` , tested on OVCAR-8 ovarian.
## Result 8240 nM

## Task Given the entry `ClCc1cccc(Cn2cnc3ncnc(Cl)c32)c1` , what GI50 was observed with OVCAR-8 ovarian?
## Result 3100 nM

## Task What GI50 appears in the records for this compound with OVCAR-8 ovarian? `O=C1c2cc3c(cc2-c2c1c1ccc(F)cc1c(=O)n2CCCNCCO)OCO3`
## Result 53.8 nM

## Task What is its GI50 for OVCAR-8 ovarian? Entry: `CO[C@H]1/C=C(/C)CCC[C@H](C)[C@H](O)[C@@H](C)C(=O)C(C)(C)[C@@H](O)CC(=O)O[C@@H]1/C(C)=C/c1csc(C)n1`
## Result 27.7 nM

## Task Which measured GI50 belongs to `COc1cc2c3c(n(C)c(=O)c2cc1OC)-c1cc2c(cc1/C3=C\CCCN)OCO2` , tested on OVCAR-8 ovarian?
## Result 10100 nM

## Task Notebook entry, OVCAR-8 ovarian assay: GI50 of `COc1cc2c3c(n(C)c(=O)c2cc1OC)-c1cc2c(cc1/C3=C\CCN)OCO2` = ?
## Result 169 nM

## Task Record `Cc1c2c(nn1-c1ccc(S(=O)(=O)/N=C3\SCCC(=O)N3c3ccccc3)cc1)-c1ccccc1CC2` : what is its GI50 with OVCAR-8 ovarian?
## Result 89600 nM

## Task Record lookup: for OVCAR-8 ovarian, what GI50 belongs to `Cc1cc(/C=C/c2ccc3cc(N(C)C)ccc3[n+]2C)c(C)n1-c1ccccc1` ?
## Result 143 nM

## Task Which measured GI50 belongs to `C=C1C(=O)O[C@H]2[C@H]1CC/C(COC(=O)c1c[nH]c3ccccc13)=C\CC[C@@]1(C)O[C@@H]21` , tested on OVCAR-8 ovarian?
## Result 282 nM
